All figures here come from PubChem BioAssay AID540264.

The compounds listed here are annotated with their IC50.
# Tested on: HEp-2 RSV Long CPE inhibition, luminescence
# protocol: protection of HEp-2 cells from RSV killing – RSV Long, luminescence, synthesized compounds, set 11, dose response (AID 540264)

smiles	measuredTarget	IC50
COCCCNC(=O)c1ccc(Cn2c(=O)c3ccccc3n(Cc3ccc(F)cc3)c2=O)cc1	HEp-2 RSV Long CPE inhibition, luminescence	5 µM

Consider the compound Cc1ccc(Cn2c(=O)n(Cc3ccc(C(=O)NC(C)(C)C)cc3)c(=O)c3ccccc32)cc1 and give its measured IC50.
1.8 µM

Given CCOCCCNC(=O)c1ccc(Cn2c(=O)c3ccccc3n(Cc3ccc(C)cc3)c2=O)cc1 , state its recorded IC50.
1.72 µM

Fill blank: measured IC50 of the compound Cc1ccc(Cn2c(=O)n(Cc3ccc(C(=O)Nc4ccncc4)cc3)c(=O)c3ccccc32)cc1 is ____.
6.29 µM

Name the recorded IC50 for COCCCNC(=O)c1ccc(Cn2c(=O)c3ccccc3n(Cc3cccc(Br)c3)c2=O)cc1 .
2.15 µM

Recorded IC50 for Cc1ccc(Cn2c(=O)n(Cc3ccc(C(=O)NCCCN(C)C)cc3)c(=O)c3ccccc32)cc1 , please?
9.29 µM

Any idea what IC50 was measured for Cc1ccc(Cn2c(=O)n(Cc3ccc(C(=O)NCCCOC(C)C)cc3)c(=O)c3ccccc32)cc1 ?
1.66 µM
